Numbers sourced from patent US20200246316A1.

# ASSAY_DETAILS: Rat 28-day GLP repeat dose PO study (toxicokinetics)
# Format: in vivo
# CONDITION_DETAILS: male, rat, in vivo, po, 2000 mg/kg, Day 14, M, 2000 mg/kg PO
# Protocol: The vehicle was 0.5% HPMC. There were 15 rats/sex in the control and high dose groups (5/sex for a 14-day recovery period) while the low and mid doses consisted of 10 rats/sex. Satellite groups of rats/sex/group for toxicokinetics were included. Rats in Group 1 (Vehicle Control) were bled once at approximately 1 hour post-dose on those days.
Counter-ions that a name gives are not always drawn.
REPORTED_METRIC: AUC(0-inf) (µg·h/mL)
Quick reminder: number only, in µg·h/mL, skip the unit.

Query block: Please indicate AUC(0-inf) recorded for CC1(C)SC(Nc2ccccc2O)=N[C@@H]1C(=O)O [Compound 1, mono-hydrochloride]
Result block: 709
